Measured log2 fold change of degron read counts accompanies every entry in the list below.
# target_under_test: T1, CRBN, Q96SW2;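 note: pooled lentiviral library of zinc finger degron-EGFP fusions in mCherry-positive Jurkat cells, FACS-sorted after compound exposure, with degron abundance counted by next-generation sequencing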
# T1 chain: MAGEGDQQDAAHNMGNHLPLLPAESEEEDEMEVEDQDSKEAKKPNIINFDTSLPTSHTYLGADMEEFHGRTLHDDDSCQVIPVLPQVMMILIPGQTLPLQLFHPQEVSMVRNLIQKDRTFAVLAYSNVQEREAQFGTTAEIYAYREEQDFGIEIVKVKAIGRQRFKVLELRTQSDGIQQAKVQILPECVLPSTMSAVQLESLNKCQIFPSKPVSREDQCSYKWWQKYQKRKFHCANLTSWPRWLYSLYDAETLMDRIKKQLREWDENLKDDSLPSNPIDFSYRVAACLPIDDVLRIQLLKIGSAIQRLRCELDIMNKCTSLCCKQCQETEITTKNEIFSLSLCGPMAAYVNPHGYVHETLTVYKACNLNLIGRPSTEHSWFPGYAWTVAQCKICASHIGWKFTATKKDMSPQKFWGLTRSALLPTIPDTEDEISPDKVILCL
# protocol_description: log2 fold change of degron read counts, EGFP-low vs EGFP+ sorted cells (limma voom), compound-induced degradation; higher = more compound-induced degradation of the degron-EGFP fusion; degrons are variants of IKZF1/3 zinc finger 2; compound dose not given here
# assay_context: Jurkat; 18 h; compound: compound 22 (5-morpholino-thalidomide)
In all, about 8,300 sequences were measured (“log2 fold change of degron read counts, EGFP-low vs EGFP+ sorted cells (limma voom), compound-induced degradation”: median about -1.1, highest 2% from about 3.2 on). This excerpt belongs to a sample that is enriched for the highest values.
Lab note: write the figure by itself, no unit.

seq	log2 fold change of degron read counts
FCCNQCGHNFTQKGNLLRHIKL [46F_47C_49N_50Q_52G_53H_54N_55F_67L_, Q9UKT9]	-3.15
LTCPICGFHCTQKGNLLRHIKL [46L_47T_49P_50I_52G_53F_54H_55C_67L_, Q9UKT9]	2.57
LMCPICGFHCTQKGNLLRHIKL [46L_47M_49P_50I_52G_53F_54H_55C_67L_, Q9UKT9]	1.21

Query string: Which log2 fold change of degron read counts reading was recorded for the sequence FICEICGAAFTQKGNLLRHIKL [46F_47I_49E_50I_52G_53A_54A_55F_67L_, Q9UKT9] ?
Result string: 2.95

Query string: Moving on to FICEICGRCFTQKGNLLRHIKL [46F_47I_49E_50I_52G_53R_54C_55F_67L_, Q9UKT9]
Result string: -1.99

Query string: What about LHCPICGFHCTQKGNLLRHIKL [46L_47H_49P_50I_52G_53F_54H_55C_67L_, Q9UKT9] ?
Result string: 2.45

Query string: Let us now turn to LYCPICGFHCTQKGNLLRHIKL [46L_47Y_49P_50I_52G_53F_54H_55C_67L_, Q9UKT9]
Result string: 3.49

Query string: What do we get for LTCEICGFGCTQKGNLLRHIKL [46L_47T_49E_50I_52G_53F_54G_55C_67L_, Q9UKT9] ?
Result string: 1.03

Query string: Another sequence: LTCEICGFFCTQKGNLLRHIKL [46L_47T_49E_50I_52G_53F_54F_55C_67L_, Q9UKT9]
Result string: 0.0956

Query string: And what about the sequence FTCNQCGAMFTQKGNLLRHIKL [46F_47T_49N_50Q_52G_53A_54M_55F_67L_, Q9UKT9] ?
Result string: -2.41

Query string: Now the same for LVCPICGFHCTQKGNLLRHIKL [46L_47V_49P_50I_52G_53F_54H_55C_67L_, Q9UKT9]
Result string: 2

Query string: Same again, this time with LDCPICGFHCTQKGNLLRHIKL [46L_47D_49P_50I_52G_53F_54H_55C_67L_, Q9UKT9]
Result string: 0.38

Query string: Field entry: FHCPQCGAWFTQKGNLLRHIKL [46F_47H_49P_50Q_52G_53A_54W_55F_67L_, Q9UKT9]
Result string: -2.04

Query string: Queued: FKCEICGHCFTQKGNLLRHIKL [46F_47K_49E_50I_52G_53H_54C_55F_67L_, Q9UKT9]
Result string: -3.82

Query string: Can you handle FYCEICGAAFTQKGNLLRHIKL [46F_47Y_49E_50I_52G_53A_54A_55F_67L_, Q9UKT9] next?
Result string: 3.59

Sourced from the supplement of paper PMC12645437
